Values were extracted from paper PMC3392537.

target: rat α3β4 (Rattus norvegicus, UniProt P04757+P12392); assay: two-electrode voltage clamp, Xenopus oocytes
Sequence (P04757 26-499): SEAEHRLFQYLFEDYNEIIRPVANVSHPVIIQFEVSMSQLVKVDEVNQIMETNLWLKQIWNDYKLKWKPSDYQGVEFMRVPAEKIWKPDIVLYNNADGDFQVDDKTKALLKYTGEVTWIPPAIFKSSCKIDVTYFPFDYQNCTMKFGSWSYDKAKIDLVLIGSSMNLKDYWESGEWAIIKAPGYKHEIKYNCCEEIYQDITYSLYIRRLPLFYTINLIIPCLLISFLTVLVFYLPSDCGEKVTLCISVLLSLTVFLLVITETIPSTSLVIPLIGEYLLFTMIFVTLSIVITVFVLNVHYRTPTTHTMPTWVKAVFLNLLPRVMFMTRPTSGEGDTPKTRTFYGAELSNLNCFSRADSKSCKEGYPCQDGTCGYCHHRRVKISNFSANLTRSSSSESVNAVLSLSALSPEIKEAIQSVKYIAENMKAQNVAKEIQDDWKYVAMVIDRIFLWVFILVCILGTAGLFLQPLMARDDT
Sequence (P12392 21-495): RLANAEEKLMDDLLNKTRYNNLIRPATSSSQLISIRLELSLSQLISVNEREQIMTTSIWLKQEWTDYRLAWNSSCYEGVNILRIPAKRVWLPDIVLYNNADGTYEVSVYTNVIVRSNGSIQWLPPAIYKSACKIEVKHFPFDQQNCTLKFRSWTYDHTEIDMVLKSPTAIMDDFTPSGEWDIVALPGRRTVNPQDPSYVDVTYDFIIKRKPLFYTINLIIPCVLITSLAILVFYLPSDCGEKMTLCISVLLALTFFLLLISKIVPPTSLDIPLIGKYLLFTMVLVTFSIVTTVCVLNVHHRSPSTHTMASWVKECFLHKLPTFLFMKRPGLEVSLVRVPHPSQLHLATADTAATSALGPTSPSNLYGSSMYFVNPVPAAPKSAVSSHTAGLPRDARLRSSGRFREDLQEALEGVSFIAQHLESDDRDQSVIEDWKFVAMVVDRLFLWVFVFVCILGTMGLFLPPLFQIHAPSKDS
Item-by-item account of pEC50
Expect pEC50 as a plain number equal to -log10 of the molar concentration.

Consider "O=c1cccc2n1C[C@@H]1CNC[C@H]2C1" . Its measured pEC50 is 3.28

Noted for "c1cnc2cc3c(cc2n1)C1CNCC3C1" : its pEC50 reads 4.55
